MEASURE: logP
Write no unit; give the number alone.

CCCCc1nc(Cl)c(CO)n1Cc1ccc(-c2ccccc2-c2nn[nH]n2)cc1 | 4.01
C[C@H](CS)C(=O)N1CCC[C@H]1C(=O)O | 1.02

Asked: Which logP value is on record for `CC(C)(C)c1ccc(O)c(CN2CCSCC2)c1` ?
Given back: 1.96

Asked: Which logP value is on record for `CC(C)(C)c1cc(CN2CCSCC2)c(O)c(CN2CCSCC2)c1` ?
Given back: 2.03

Asked: Which logP value is on record for `CCOC(=O)C1=C(C)NC(C)=C(C(=O)OCC)C1c1cc(CN2CCOCC2)c(O)c(CN2CCOCC2)c1` ?
Given back: 2.7

* * *

# System: Rattus norvegicus
# TEST DESCRIPTION: Antiarrhythmic activity in Wistar rat invasive arterial pressure model assessed as reduction of heart rate at 0.1 mg/kg, iv
# Format: functional, organism-based
# Parameters: dose 0.1 mg/kg
Active and inactive are the calls of the source. The rule behind the calls is not given here.
MEASURE: Activity

CCOC(=O)C1=C(C)NC(C)=C(C(=O)OCC)C1c1cc(CN2CCOCC2)c(O)c(CN2CCOCC2)c1 | Active
CC(C)(C)c1cc(CN2CCSCC2)c(O)c(CN2CCSCC2)c1 | Active
Oc1ccc(Cl)cc1CN1CCSCC1 | Active
CC(C)(C)c1ccc(O)c(CN2CCSCC2)c1 | Active
